Values from patent US20040029823A1

% EXPRESSION for assorted substances
# Test system: JNK3 mRNA
# assay_comment: Northern assay of JNK3 mRNA levels in SH-SY5Y cells
# Assay type: cell-based, human
# condition_info: 200 nM oligonucleotide
e = 2'-O-(2-methoxyethyl) (MOE); d = 2'-deoxy (DNA)

| substance | % EXPRESSION |
| --- | --- |
| 16709 (antisense ATCATCTCCTGAAGAACGCT; sugars from the 5' end e6 d8 e6, all phosphorothioate, methylation of C not given here) [compound 16709] | 66% |
| 16698 (antisense AATCACTTGACATAAGTTGG; sugars from the 5' end e6 d8 e6, all phosphorothioate, methylation of C not given here) [compound 16698] | 63% |
| 16694 (antisense TCACATCCAATGTTGGTTCA; sugars from the 5' end e6 d8 e6, all phosphorothioate, methylation of C not given here) [compound 16694] | 42% |
| 16692 (antisense TGGAGGCTCATAAATACCAC; sugars from the 5' end e6 d8 e6, all phosphorothioate, methylation of C not given here) [compound 16692] | 47% |
| 16707 (antisense GCGGCTAGTCACCTGCAACA; sugars from the 5' end e6 d8 e6, all phosphorothioate, methylation of C not given here) [compound 16707] | 73% |
| 16702 (antisense TGTTCTCTTTCATCCAACTG; sugars from the 5' end e6 d8 e6, all phosphorothioate, methylation of C not given here) [compound 16702] | 39% |
| 16705 (antisense AGGCTGCTGTCAGTGTCAGA; sugars from the 5' end e6 d8 e6, all phosphorothioate, methylation of C not given here) [compound 16705] | 42% |
| 16708 (antisense CGCTGGGTTTCGCAGGCAGG; sugars from the 5' end e6 d8 e6, all phosphorothioate, methylation of C not given here) [compound 16708] | 68% |
| 16695 (antisense TTATCGAATCCCTGACAAAA; sugars from the 5' end e6 d8 e6, all phosphorothioate, methylation of C not given here) [compound 16695] | 44% |

* * *

# Tested on: JNK1 mRNA
# assay_comment: Northern assay of JNK1 mRNA expression in A549 cells
# Type: cell-based, human
# condition_info: JNK1 mRNA, A549 cells, 400 nM oligonucleotide, relative to LIPOFECTIN-only control
# Method: In order to evaluate the activity of potential JNK-modulating oligonucleotides, human lung carcinoma cell line A549 (American Type Culture Collection, Rockville, Md. No. ATCC CCL-185) cells or other cell lines as indicated in the Examples, were grown and treated with oligonucleotides or control solutions as detailed below. […] Northern Assays: The mRNA expression of each JNK protein was determined by using a nucleic acid probe specifically hybridizable thereto. […]

| substance | target_under_test | % EXPRESSION / % |
| --- | --- | --- |
| 12548 (antisense ATTTGCATCCATGAGCTCCA; DNA, all phosphorothioate, methylation of C not given here) [compound 12548] | JNK1 mRNA | 5 |
| 12552 (antisense CGGGTGTTGGAGAGCTTCAT; DNA, all phosphorothioate, methylation of C not given here) [compound 12552] | JNK1 mRNA | 34 |
| 11979 (antisense CTCCTCCAAGTCCATAACTT; DNA, all phosphorothioate, methylation of C not given here) [compound 11979] | JNK1 mRNA | 90 |
| 12550 (antisense GGATGACCTCGGGTGCTCTG; DNA, all phosphorothioate, methylation of C not given here) [compound 12550] | JNK1 mRNA | 40 |
| 12463 (antisense CACGCTTGCTTCTGCTCATG; DNA, all phosphorothioate, methylation of C not given here) [compound 12463] | JNK1 mRNA | 23 |

* * *

Protein % Inhibition for assorted substances
# Tested on: JNK1 protein
# assay_comment: Western assay of JNK1 protein levels in A549 cells
# Type: cell-based, human
# condition_info: t = 72 h, 300 nM for 20 hours then 200 nM for 4 hours
Strand notation (5' to 3'): a small letter for the sugar, then the base; units joined by * are phosphorothioate-linked, units joined directly phosphodiester-linked; [ ] holds rarer units or linkages, { } end groups; capitals alone tell only the bases. e = 2'-O-(2-methoxyethyl) (MOE); [5mC] = 5-methylcytosine; d = 2'-deoxy (DNA)

| substance | target_under_test | Protein % Inhibition [%] |
| --- | --- | --- |
| 15345 (antisense e[5mC]*eT*e[5mC]*eT*e[5mC]*eT*eG*eT*eA*eG*eG*e[5mC]*e[5mC]*e[5mC]*eG*e[5mC]*eT*eT*eG*eG) [compound 15345] | JNK1 protein | 12.2 |
| 15350 (antisense CTCTCTGTAGGCCCGCTTGG; sugars from the 5' end d9 e11, [5mC] at 12, 13, 14, 16, linkages s9 o10 (s phosphorothioate, o phosphodiester), methylation of C not given here) [compound 15350] | JNK1 protein | 41.6 |
| 15349 (antisense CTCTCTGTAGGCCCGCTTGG; sugars from the 5' end d9 e11, [5mC] at 12, 13, 14, 16, all phosphorothioate, methylation of C not given here) [compound 15349] | JNK1 protein | 43.5 |
| 15348 (antisense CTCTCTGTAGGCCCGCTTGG; sugars from the 5' end e11 d9, [5mC] at 1, 3, 5, all phosphorothioate, methylation of C not given here) [compound 15348] | JNK1 protein | 58.3 |

* * *

Normalized % Control for assorted substances
# Tested on: JNK1 mRNA
# assay_comment: Northern assay of JNK1 mRNA expression in A549 cells
# Format: cell-based, human
# condition_info: JNK1 mRNA, chemically modified oligonucleotides, dose 400 nM
e = 2'-O-(2-methoxyethyl) (MOE); [5mC] = 5-methylcytosine; d = 2'-deoxy (DNA)
readout_label: Normalized % Control (%)

| substance | target_under_test | readout_label | reported_measurement |
| --- | --- | --- | --- |
| 15347 (antisense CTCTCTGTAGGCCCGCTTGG; sugars from the 5' end e5 d9 e6, [5mC] at 1, 3, 5, 16, linkages o4 s10 o5 (s phosphorothioate, o phosphodiester), methylation of C not given here) [compound 15347] | JNK1 mRNA | Normalized % Control | 11.7 |
| 15350 (antisense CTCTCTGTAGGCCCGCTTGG; sugars from the 5' end d9 e11, [5mC] at 12, 13, 14, 16, linkages s9 o10 (s phosphorothioate, o phosphodiester), methylation of C not given here) [compound 15350] | JNK1 mRNA | Normalized % Control | 41.3 |
| 15351 (antisense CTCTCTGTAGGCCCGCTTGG; sugars from the 5' end e11 d9, [5mC] at 1, 3, 5, linkages o10 s9 (s phosphorothioate, o phosphodiester), methylation of C not given here) [compound 15351] | JNK1 mRNA | Normalized % Control | 39.8 |
| 12539 (antisense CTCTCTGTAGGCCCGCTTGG; DNA, all phosphorothioate, methylation of C not given here) [compound 12539] | JNK1 mRNA | Normalized % Control | 26.7 |

* * *

# Tested on: JNK1 mRNA
# assay_comment: Northern assay of JNK1 mRNA expression in A549 cells
# Type: cell-based, human
# condition_info: JNK1 mRNA, A549 cells, 400 nM oligonucleotide, relative to LIPOFECTIN-only control
% EXPRESSION strictly under 50% means fulfilled; at 50% or over means not fulfilled.

| substance | class_assignment |
| --- | --- |
| 12555 (antisense TGCTAAAGGAGAGGGCTGCC; DNA, all phosphorothioate, methylation of C not given here) [compound 12555] | fulfilled |
| 11983 (antisense GTTGACATTGAAGACACATC; DNA, all phosphorothioate, methylation of C not given here) [compound 11983] | fulfilled |
| 11986 (antisense AGTCATCTACAGCAGCCCAG; DNA, all phosphorothioate, methylation of C not given here) [compound 11986] | not fulfilled |
| 11984 (antisense CTGTATCAGAGGCCAAAGTC; DNA, all phosphorothioate, methylation of C not given here) [compound 11984] | not fulfilled |
| 11980 (antisense CCCGTATAACTCCATTCTTG; DNA, all phosphorothioate, methylation of C not given here) [compound 11980] | not fulfilled |

* * *

# Tested on: JNK2 mRNA
# assay_comment: Northern assay of JNK2 mRNA expression in A549 cells
# Format: cell-based, human
# condition_info: JNK2 mRNA, chemically modified oligonucleotides, dose 100 nM
# Description: In order to evaluate the activity of potential JNK-modulating oligonucleotides, human lung carcinoma cell line A549 (American Type Culture Collection, Rockville, Md. No. ATCC CCL-185) cells or other cell lines as indicated in the Examples, were grown and treated with oligonucleotides or control solutions as detailed below. […] Northern Assays: The mRNA expression of each JNK protein was determined by using a nucleic acid probe specifically hybridizable thereto. […]
Strand notation (5' to 3'): a small letter for the sugar, then the base; units joined by * are phosphorothioate-linked, units joined directly phosphodiester-linked; [ ] holds rarer units or linkages, { } end groups; capitals alone tell only the bases. e = 2'-O-(2-methoxyethyl) (MOE); [5mC] = 5-methylcytosine; d = 2'-deoxy (DNA)
Normalized % Control strictly under 60% means Met; at 60% or over means Not met.

| substance | class_assignment |
| --- | --- |
| 15358 (antisense eGeTe[5mC]e[5mC]eGeGeGe[5mC]e[5mC]eAeG*dG*dC*dC*dA*dA*dA*dG*dT*e[5mC]) [compound 15358] | Met |
| 12560 (antisense GTCCGGGCCAGGCCAAAGTC; DNA, all phosphorothioate, methylation of C not given here) [compound 12560] | Not met |
| 15352 (antisense eG*eT*e[5mC]*e[5mC]*eG*eG*eG*e[5mC]*e[5mC]*eA*eG*eG*e[5mC]*e[5mC]*eA*eA*eA*eG*eT*e[5mC]) [compound 15352] | Not met |
| 15357 (antisense GTCCGGGCCAGGCCAAAGTC; wingmer: 5' deoxy phosphorothioate wing, 3' MOE phosphodiester wing, wing lengths not given here) [compound 15357] | Met |
| 15354 (antisense eGeTe[5mC]e[5mC]eG*dG*dG*dC*dC*dA*dG*dG*dC*dC*eAeAeAeGeTe[5mC]) [compound 15354] | Met |
| 15356 (antisense dG*dT*dC*dC*dG*dG*dG*dC*dC*eA*eG*eG*e[5mC]*e[5mC]*eA*eA*eA*eG*eT*e[5mC]) [compound 15356] | Met |
| 15353 (antisense eG*eT*e[5mC]*e[5mC]*eG*dG*dG*dC*dC*dA*dG*dG*dC*dC*eA*eA*eA*eG*eT*e[5mC]) [compound 15353] | Met |
